# targetEntity: huPD-L1 (Homo sapiens, UniProt Q9NZQ7)
# Sequence (Q9NZQ7 19-290): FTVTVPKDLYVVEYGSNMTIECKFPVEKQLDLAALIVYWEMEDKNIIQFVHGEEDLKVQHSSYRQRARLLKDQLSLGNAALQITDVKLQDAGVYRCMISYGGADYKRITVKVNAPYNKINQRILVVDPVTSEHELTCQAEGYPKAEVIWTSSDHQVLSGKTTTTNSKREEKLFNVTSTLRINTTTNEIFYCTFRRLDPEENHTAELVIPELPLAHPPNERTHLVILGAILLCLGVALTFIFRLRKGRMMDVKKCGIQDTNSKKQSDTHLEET
# testDetails: Flow binding to CHO cells stably expressing PD-L1
# Set-up: huCTLA4 and huPD-L1, full-length mammalian surface expression constructs were generated; expressed in transfected cells; host or cells: CHO cells, lentiviral transduction, sorted to >98% purity
# measurementParameters: Table E11; 33.3 nM; listed as WT CD80 ECD-Fc = 1.0
# Method: Binding of selected immunomodulatory fusion proteins to cognate binding partners was assessed. […] Cells were sorted in a Bio-Rad S3 Cell Sorter (Bio-Rad Corp., USA) to >98% purity. […] For staining and analysis by flow cytometry, 100,000 cells of appropriate transfected cells were plated in 96-well round bottom plates. […] Cells were then washed twice with 150 μL/well stain buffer, fixed in 2% formaldehyde/PBS, and analyzed on Intellicyt flow cytometer (Intellicyt Corp., USA). […]
experimentalReadout: PD-L1 Fold change to WT CD80

Ask: GET /values?readout=PD-L1 Fold change to WT CD80&item= E24D/E35D/M47L/V68M/E95V/L97Q (protein, UniProt P33681 35-288, looked up, variant E24D E35D M47L V68M E95V L97Q) T-lymphocyte activation …: VIHVTKEVKEVATLSCGHNVSVEDLAQTRIYWQKDKKMVLTMMSGDLNIWPEYKNRTIFDITNNLSIMILALRPSDEGTYECVVLKYEKDAFKRVHQAEVTLSVKADFPTPSISDFEIPTSNIRRIICSTSGGFPEPHLSWLENGEELNAINTTVSQDPETELYAVSSKLDFNMTTNHSFMCLIKYGHLRVNQTFNWNTTKQEHFPDNLLPSWAITLISVNGIFVICCLTYCFAPRCRERRRNERLRRESVRPV
Result: 362.1
